Consider the following compounds and their measured IC50 readings.
target: Human immunodeficiency virus type 1 protease (Human immunodeficiency virus 1)
attribute_measured: IC50 (nM)

INSERT INTO measurements (compound, units_label, experimental_value) VALUES
  ('CC(C)(C)OC(=O)N[C@@H](Cc1ccccc1)[C@@H](O)C[C@]1(Cc2ccccc2)CCN([C@@H]2CS(=O)(=O)Cc3ccccc32)C1=O', 'nM', 17),
  ('CC(C)[C@@H](CO)N1CC[C@@](Cc2ccccc2)(C[C@H](O)[C@H](Cc2ccccc2)NC(=O)OC(C)(C)C)C1=O', 'nM', 35),
  ('C[C@@H]1CC[C@@H](O)[C@H]1N1CC[C@@](Cc2ccccc2)(C[C@H](O)[C@H](Cc2ccccc2)NC(=O)OC(C)(C)C)C1=O', 'nM', 14),
  ('CC(C)(C)OC(=O)N[C@@H](Cc1ccccc1)[C@@H](O)CC1(Cc2ccccc2)CCN([C@H]2c3ccccc3C[C@H]2O)C1=O (single isomer, unassigned)', 'nM', 37),
  ('O=C(N[C@@H](Cc1ccccc1)[C@@H](O)C[C@]1(Cc2ccccc2)CCN([C@@H]2CS(=O)(=O)Cc3ccccc32)C1=O)O[C@H]1CCOC1', 'nM', 1.8),
  ('CC(C)(C)OC(=O)N[C@@H](Cc1ccccc1)[C@@H](O)C[C@]1(Cc2ccccc2)CCN([C@@H]2CSCc3ccccc32)C1=O', 'nM', 111),
  ('O=C(N[C@@H](Cc1ccccc1)[C@@H](O)C[C@@H](Cc1ccccc1)C(=O)N[C@H]1c2ccccc2C[C@H]1O)O[C@H]1CCOC1', 'nM', 0.06);
